Values from PubChem BioAssay (NCI)

# Test system: DU-145 prostate
# experiment summary: NCI-60 one-dose screen, 48 h (100 = growth as untreated, 0 = no growth, -100 = all killed)
# run parameters: 10 µM unless noted
This is part of a sample that, as a whole, favours compounds with a hit. Of some 83,000 tested, about 20% had one in any assay. The source made the active and inactive calls. How the source made its calls: active means growth percent below 10; inactive means the rest.
Below, each entry is listed with its recorded growth.

Some compounds with known growth results, for comparison:
| compound | growth |
| --- | --- |
| COc1cc2c(c(OC)c1OC)-c1ccc(NCc3ccccc3)c(=O)cc1[C@@H](NC(C)=O)CC2 | 1.24% (active) |
| Nc1ccc(Oc2ccccc2)c(Cl)c1 | 104% (inactive) |
| CCC(=O)c1cc([N+](=O)[O-])c(Br)s1 | 105% (inactive) |
| CC(C)Nc1ccc(Nc2ccc(NC(C)C)cc2)cc1 | 63.1% (inactive) |
| Oc1ccc(Nc2ccc3ccccc3c2)cc1 | 51.2% (inactive) |

I am curious: what growth value has been reported for "CN(Cc1ccccc1)c1ccc(SC#N)cc1" ?
103% (inactive)

Fill in: growth of Cc1ccccc1N=C(N)Nc1ccccc1C (tested in a mixture with another compound) is ___
84.3% (inactive)

Endpoint output: growth of CC1(C)OCC(COC(c2ccccc2)(c2ccccc2)c2ccccc2)O1 (stereo not given) . Value?
100% (inactive)

What does the record list as growth for "Oc1ccc(Cl)cc1C(c1cc(Cl)ccc1O)C(Cl)(Cl)Cl" ?
-47.8% (active)

Given "Cc1ccc(Nc2ccc(O)c3c2C(=O)c2c(O)ccc(Nc4ccc(C)cc4)c2C3=O)cc1" , state its recorded growth.
124% (inactive)

Reported growth, compound CCOC(=O)C1(C)CCCC1N (stereo not given) : ____
108% (inactive)

Give its growth value. Item: "COc1ccc(/C=C2/C(=O)ON=C2C)cc1"
109% (inactive)

Look at this compound and give its reported growth. CC(=O)c1c(O)c(C)c(O)c2c1OC1=CC(=O)C(C(C)=O)C(=O)C12C (stereo not given)
107% (inactive)

Which growth value is on record for "CC(C)(C)c1ccc(O)c(-c2ccccc2)c1" ?
115% (inactive)

Need growth, item "CC1(O)CCCCCC1"
106% (inactive)

Sample "CC(=O)Nc1ccc(C(=O)CCl)cc1" — what was its growth?
66% (inactive)

Any idea what its growth is? The compound is "Cc1oc2c(C)c3oc(=O)cc(C)c3cc2c1CCl"
72.8% (inactive)

I am curious: what growth value has been reported for "Cc1cc(C)c(C#N)c(Sc2nc(C)c([N+](=O)[O-])c(C)c2C#N)n1" ?
41.7% (inactive)

Report growth for "Cc1nc([N+](=O)[O-])c(Sc2nncc(-c3ccccc3)n2)n1C" please.
67.3% (inactive)

Quick one: growth for "CCCCCCCCCCCCN1C(C)=CS/C1=C\C=C\c1scc(C)[n+]1CCCCCCCCCCCC" ?
43% (inactive)

Endpoint output: growth of "CC(C)(C)c1ccc(CCO)cc1" . Value?
114% (inactive)

Could you share which growth value was measured for "CCCCOS(=O)(=O)c1ccccc1" ?
112% (inactive)

###

# Test system: SR leukemia
# experiment summary: NCI-60 one-dose screen, 48 h (100 = growth as untreated, 0 = no growth, -100 = all killed)
# run parameters: 10 µM unless noted
This is part of a sample that, as a whole, favours compounds with a hit. Of some 83,000 tested, about 20% had one in any assay.
recorded endpoint: growth (%)
Respond with the bare value in %.

Reference set, count: 5
| molecule | growth / % |
| --- | --- |
| Oc1ccc(Cl)cc1C(c1cc(Cl)ccc1O)C(Cl)(Cl)Cl | -25.2 |
| CC(CSc1n[nH]c(=S)s1)c1ccccc1 (stereo unspecified) | 84.5 |
| CCOc1ccc2c(c1)/C(=C\C=C\C1CC(C)C3CC(OCC)CCC3N1CC)CC(C)N2CC (stereo unspecified) | -47.6 |
| CCNc1nnnn1CC | 108 |
| O=C(c1ccccc1)C(Br)[N+](=O)[O-] (stereo unspecified) | 5.17 |

Quick one: growth for N#CC1c2ccccc2C=CN1C(=O)CCCl (stereo unspecified) ?
5.98

Need growth of OC(c1cc2ccc(C(F)(F)F)cc2c2cc(C(F)(F)F)ccc12)C1CCCCN1 (stereo unspecified) , thanks.
-84.7

Which value of growth has been reported for "COc1cc(OC)c(/C=C/c2c3ccccc3cc[n+]2C)c(OC)c1" in the records?
-18.2

###

# Tested on: A549/ATCC NSCLC
# experiment summary: NCI-60 one-dose screen, 48 h
# run parameters: 10 µM unless noted
The panel holds about 83,000 compounds, 20% with a hit somewhere; the sample as a whole holds those more often. Calls of active or inactive are those of the source. How the source made its calls: active means growth percent below 10; inactive means the rest.
Use one of these outcomes when replying: yes (1) for active, no (0) for inactive

| compound | assigned category |
| --- | --- |
| S=C(S)OCN1CCOCC1 | no (0) |
| CCCCCCCCC(=O)OCCCC(CCC(CCC1CCCO1)OC(=O)CCCCCCCC)OC(=O)CCCCCCCC (stereo not drawn) | no (0) |
| CCCCCCCCCCCC(=O)OC(C)C(=O)NCCCC (stereo not drawn) | no (0) |
| CC1(C)OC2C(COC(c3ccccc3)(c3ccccc3)c3ccccc3)OC(c3c[nH]c4c(N)ncnc34)C2O1 (stereo not drawn) | no (0) |
| Cc1cc(C(=C2C=CC(=Nc3ccccc3)C=C2)c2ccc(Nc3ccccc3)cc2)ccc1N | yes (1) |

How did this test come out for "CC1(C)CCCC2=C1C(=O)N(SC(Cl)(Cl)Cl)C2=O" ?
no (0)

Could you check what this test reported for Oc1c(Cl)cc(Cl)cc1C=NCC1CCC(CN=Cc2cc(Cl)cc(Cl)c2O)CC1 (stereo not drawn) ?
no (0)

Returns: the outcome recorded for "NC(=S)N/N=C\c1nccc2c(C(F)(F)F)cccc12" in this assay.
yes (1)

In this assay, the call recorded for "O=C(C[P+](c1ccccc1)(c1ccccc1)c1ccccc1)c1ccccc1" was what?
no (0)

###

# Test system: SK-MEL-28 melanoma
# experiment summary: NCI-60 one-dose screen, 48 h (100 = growth as untreated, 0 = no growth, -100 = all killed)
# run parameters: 10 µM unless noted
Compounds without any hit were thinned out: in the full panel of roughly 83,000, 20% have a hit.
recorded endpoint: growth (%)
Respond numerically; units are % and should not be typed.

These recorded examples may help you get a feel for the data.
| compound | assayed system | output unit | test result |
| --- | --- | --- | --- |
| OC(c1cc(-c2ccc(Cl)cc2)nc2c(Cl)cccc12)C1CCCCN1 (stereo unspecified) | SK-MEL-28 melanoma | % | -94.6 |
| O=Nc1ccc2ccccc2c1O | SK-MEL-28 melanoma | % | 83.8 |
| CCCCCCCCC(=O)OCCCC(CCC(CCC1CCCO1)OC(=O)CCCCCCCC)OC(=O)CCCCCCCC (stereo unspecified) | SK-MEL-28 melanoma | % | 102 |
| CN(C)CCSC1=Nc2ccc(Cl)cc2C(c2ccccc2Cl)N(C)C1 (stereo unspecified) | SK-MEL-28 melanoma | % | 70.9 |
| N=C1C=C(N)C(=O)c2ccccc21 | SK-MEL-28 melanoma | % | -96.5 |

Below: the item to evaluate.
Which growth reading was recorded for the compound "NC1=C(Br)C(=O)c2ncccc2C1=O" ?
-87.4

###

# System: SF-539 CNS
# experiment summary: NCI-60 one-dose screen, 48 h (100 = growth as untreated, 0 = no growth, -100 = all killed)
# run parameters: 10 µM unless noted
About 83,000 compounds went through this panel and 20% of them were active in at least one assay; those are over-represented in the sample as a whole.
recorded endpoint: growth (%)
Write the number in % without appending the unit.

| compound | growth, % |
| --- | --- |
| S=c1[nH]c2cc(Cl)ccc2s1 | 100 |
| C1=C(c2ccccc2)c2ccccc2C1 | 99.5 |

What growth value was documented for this compound, "O=C(Cc1ccccc1)C(F)(F)F" ?
97

Name the reported growth value associated with the compound c1ccc(C2NCCNC2c2ccccc2)cc1 (centres undefined)
98.7

Returns the measured growth for the input compound. Input: CCCCCCCCCCCC1N=C(N)N=C(N)N1c1cccc(Br)c1 (centres undefined)
12

Any idea what growth was measured for "O=C(Nc1cccc(C(F)(F)F)c1)Oc1ccc(Cl)c2cccnc12" ?
50.9

For the compound "c1csc(-c2[nH]nc3c2CCc2ccccc2-3)c1" , what growth is on record?
82.1

Value lookup for growth; key = Cc1ccccc1N=C(N)Nc1ccccc1C (tested in a mixture with another compound)
72.4

Given CCCCCCC1N=C(N)N=C(N)N1c1cccc(Cl)c1 (centres undefined) , state its recorded growth.
5.72

Quick one: growth for CCCc1cc(=O)oc2c3c(c4c(c12)OC(C)(C)CC4)OC(C)[C@H](C)[C@@H]3O (some centres undefined) ?
108

For "Oc1ccccc1N=Cc1ccccc1" , what is its reported growth?
108

Param item = "Oc1ccc(Br)cc1Sc1cc(Br)ccc1O" ; retrieve measured growth.
45.3

Tell me the measured growth of "O=C1CSC(=S)N1Cc1cccnc1" , please.
93.6

Can you share its growth? I mean this compound: CC1CC(C)(C)OB(OC(C)CC(C)(C)OB2OC(C)CC(C)(C)O2)O1 (centres undefined)
104
